A collection of compounds and their measured normalized growth
test: chemical genetic growth profiling, strain panel (AID 1159580);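 note: tested at 20 µM; growth read once vehicle control cultures reached saturation at 30 °C; 1 = growth at the plate median or of vehicle wells; lower values mean less growth of the strain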; details: S. cerevisiae deletion strains, growth OD, locus YMR078C, strain ctf18, hits give low values
The whole screen tested about 5,500 compounds, of which about 2,000 (36%) were called active. Another 18% or so got no clear call; they are omitted. The list shows a part of the results.
measurement_name: normalized growth

compound="CCCCCCCCNC(C)C(O)c1ccc(SC(C)C)cc1 (stereo not given)" measurement_name="normalized growth" numeric_value=0.0681
compound=COc1ccc2c3c1O[C@H]1C[C@@H](O)C=C[C@@]31CCN(C)C2 measurement_name="normalized growth" numeric_value=1.03
compound=CN1CCC(=C2c3ccccc3CC(=O)c3sccc32)CC1 measurement_name="normalized growth" numeric_value=1
compound=O=C1C=CC(=C(c2ccc(O)cc2)c2ccc(O)cc2)C=C1 measurement_name="normalized growth" numeric_value=0.98
compound="COc1cc2c(cc1OC)C1C(=O)c3c(cc4c(c3O)C=CC(C)(C)O4)OC1CO2 (stereo not given)" measurement_name="normalized growth" numeric_value=1.02
compound="CCC(=O)O[C@H]1CCC2C3CCC4=CC(=O)CC[C@]4(C)C3CC[C@@]21C (stereo not given in full)" measurement_name="normalized growth" numeric_value=0.978
compound="C=C(C)C1CNC(C(=O)O)C1CC(=O)O (stereo not given)" measurement_name="normalized growth" numeric_value=1.03
compound=COc1cc2c(cc1OC)C(=O)OC2 measurement_name="normalized growth" numeric_value=1
compound="CCC(C)C(=O)O[C@H]1[C@H](O)C2C(CN3CC(C)CCC3[C@@]2(C)O)C2C[C@]34O[C@]5(O)C(OC(=O)C(C)(O)C(C)O)CC[C@@]3(C)C5C(OC(C)=O)[C@@H](OC(C)=O)C4[C@@]21O (stereo not given in full)" measurement_name="normalized growth" numeric_value=1.01
compound="CCOC(=O)C(Cc1ccc(O)cc1)NC(C)=O (stereo not given)" measurement_name="normalized growth" numeric_value=1.01
compound="CC(=O)C1CCC2C3CC(=O)C4=CC(=O)CCC4(C)C3CCC12C (stereo not given)" measurement_name="normalized growth" numeric_value=0.968
compound="CC1=C(CC(=O)O)c2cc(F)ccc2/C1=C\\c1ccc(S(C)=O)cc1 (stereo not given)" measurement_name="normalized growth" numeric_value=1.01
compound="CNC(C)[C@H](O)c1ccccc1 (stereo not given in full)" measurement_name="normalized growth" numeric_value=0.989
compound=CNCCc1ccccn1 measurement_name="normalized growth" numeric_value=1.02
compound="CC1=C(/C=C/C(C)=C/C=C/C(C)=C/C=C/C=C(C)/C=C/C=C(C)/C=C/C2=C(C)C(=O)C(O)CC2(C)C)C(C)(C)CC(O)C1=O (stereo not given)" measurement_name="normalized growth" numeric_value=0.979
compound=COC1=CC(=O)C[C@@H](C)[C@]12Oc1c(Cl)c(OC)cc(OC)c1C2=O measurement_name="normalized growth" numeric_value=0.987
compound="C=Cc1c2[nH]c(c1C)C=c1[nH]c(c(C)c1C=C)=CC1N=C(C=c3[nH]c(c(C)c3CCC(=O)O)=C2)C(CCC(=O)O)=C1C (stereo not given)" measurement_name="normalized growth" numeric_value=0.993
compound="CC(C)CC(NC(=O)C(Cc1ccccc1)NC(=O)CNC(=O)CNC(=O)C(N)Cc1ccc(O)cc1)C(=O)O (stereo not given)" measurement_name="normalized growth" numeric_value=0.986
compound=O=C(CC[N+](=O)[O-])OC[C@H]1O[C@@H](O)[C@H](OC(=O)CC[N+](=O)[O-])[C@@H](OC(=O)CC[N+](=O)[O-])[C@@H]1OC(=O)CC[N+](=O)[O-] measurement_name="normalized growth" numeric_value=1.01
compound=Cc1cc(O)c(C)c(O)c1C(=O)O measurement_name="normalized growth" numeric_value=0.984
compound=CCCCCCCCCCCCCCCC[N+](C)(C)C measurement_name="normalized growth" numeric_value=0.0689
compound=COc1cc2c(cc1OC)Cc1cc(OC)c(OC)cc1Cc1cc(OC)c(OC)cc1C2 measurement_name="normalized growth" numeric_value=1.04
compound=CC1(C)OC(=O)NC1=O measurement_name="normalized growth" numeric_value=0.971
compound=Cc1c(O)c(C(=O)CC(C)C)c2oc3c(C(=O)CC(C)C)c(O)c(C)c(O)c3c2c1O measurement_name="normalized growth" numeric_value=1
compound=CN1CCC(=C2c3ccccc3Sc3ccccc32)CC1 measurement_name="normalized growth" numeric_value=1
compound="N=c1ccn2c(n1)O[C@@H]1C2O[C@H](CO)[C@H]1O (stereo not given in full)" measurement_name="normalized growth" numeric_value=1.01
compound=COc1cc2c(cc1OC)[C@@H]1C(=O)c3ccc4oc(C(C)C)cc4c3O[C@@H]1CO2 measurement_name="normalized growth" numeric_value=1.02
compound="COc1cc2c(cc1OC)C1C(=O)c3ccc4c(c3OC1CO2)CCC(C)(C)O4 (stereo not given)" measurement_name="normalized growth" numeric_value=0.997
compound="CC1=C(/C=C/C(C)=C/C=C/C(C)=C/C=C/C=C(C)/C=C/C=C(C)/C=C/C23OC2(C)CC(O)CC3(C)C)C(C)(C)CC(O)C1 (stereo not given)" measurement_name="normalized growth" numeric_value=1.02
compound="C[C@H]1CC2C([C@@H](O)C[C@@]3(C)C2CC[C@]3(O)C(=O)CO)[C@@]2(C)C=CC(=O)C=C12 (stereo not given in full)" measurement_name="normalized growth" numeric_value=1.01
compound=S=c1nc[nH]c2nc[nH]c12 measurement_name="normalized growth" numeric_value=0.973
compound=COc1cc2c(cc1OC)[C@@H]1C(=O)c3ccc(O)c(CC=C(C)C)c3O[C@@H]1CO2 measurement_name="normalized growth" numeric_value=1.01
compound=COc1cc2c(cc1OC)[C@@H]1C(=O)c3ccc(OC)c(CC=C(C)C)c3O[C@@H]1CO2 measurement_name="normalized growth" numeric_value=1.01
compound=CCOC(=O)c1c(C)cc(O)c(C=O)c1O measurement_name="normalized growth" numeric_value=0.112
compound="CC(CCc1ccccc1)NC(C)C(O)c1ccc(O)cc1 (stereo not given)" measurement_name="normalized growth" numeric_value=0.987
compound="CN1CCCN=C1COC(=O)C(O)(c1ccccc1)C1CCCCC1 (stereo not given)" measurement_name="normalized growth" numeric_value=0.992
compound="c1cncc(C2CCCCN2)c1 (stereo not given)" measurement_name="normalized growth" numeric_value=0.999
compound="CC1=C(C(C)O)C2=NC1C=c1[nH]c(c(C)c1C(C)O)=Cc1[nH]c(c(CCC(=O)O)c1C)C=c1[nH]c(c(C)c1CCC(=O)O)=C2 (stereo not given)" measurement_name="normalized growth" numeric_value=1.03
compound="ClC1=C(Cl)C2(Cl)C3C4C=CC(C4)C3C1(Cl)C2(Cl)Cl (stereo not given)" measurement_name="normalized growth" numeric_value=0.979
compound="CC(=O)OCC(=O)[C@H]1CCC2C3CCC4=CC(=O)CC[C@]4(C)C3CC[C@@]21C (stereo not given in full)" measurement_name="normalized growth" numeric_value=0.923
